- Assay protocol: Binding affinity to human plasma AGP by isothermal titration calorimetry
- Type: ADME
pKd: −log10 of the molar value.
Observation type: pKd

structure_as_smiles=Cc1ccc(S(=O)(=O)N(CC(=O)NCCOCCC(=O)NCCOCCC(=O)N[C@@H](CCCCNC(=O)/C=C/c2ccc(-c3ccccc3C(F)(F)F)o2)C(=O)O)c2ccccc2-c2ccccc2)cc1 experimental_value=5.24

* * *

- Subject of test: UniProt:Q6L8Q7
- Sequence (Q6L8Q7 whole entry, the tested form may be a part): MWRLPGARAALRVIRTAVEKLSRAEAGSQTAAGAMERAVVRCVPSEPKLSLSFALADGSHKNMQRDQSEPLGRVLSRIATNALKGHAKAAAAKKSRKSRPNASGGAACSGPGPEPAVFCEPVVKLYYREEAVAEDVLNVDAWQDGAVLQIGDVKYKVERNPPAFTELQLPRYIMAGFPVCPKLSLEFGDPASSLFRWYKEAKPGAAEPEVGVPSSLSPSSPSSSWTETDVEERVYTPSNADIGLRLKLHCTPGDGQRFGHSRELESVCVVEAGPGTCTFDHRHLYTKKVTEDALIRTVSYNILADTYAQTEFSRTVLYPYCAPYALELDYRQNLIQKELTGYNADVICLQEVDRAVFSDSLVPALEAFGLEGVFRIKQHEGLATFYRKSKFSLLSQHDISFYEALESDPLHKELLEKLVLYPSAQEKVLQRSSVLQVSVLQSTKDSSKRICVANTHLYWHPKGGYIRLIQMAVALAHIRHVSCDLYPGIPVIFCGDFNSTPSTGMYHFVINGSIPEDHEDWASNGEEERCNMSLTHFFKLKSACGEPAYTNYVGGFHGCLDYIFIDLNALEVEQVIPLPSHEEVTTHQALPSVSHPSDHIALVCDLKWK
- Assay protocol: Inhibition of human PDE12 (17 to 609 residues) expresssed in Escherichia coli BL21(DE3) cells using 2-5A as substrate assessed as AMP monomers and ATP formation after 30 mins by AMP-Glo assay
pIC50: −log10 of the molar value.
Observation type: pIC50

structure_as_smiles=CCn1cc(-c2nc3cc(Br)c(C(=O)N4CCO[C@@H](c5ccc(F)cc5)[C@@H]4CO)cc3n2C)c2ccc(C#N)cc21 experimental_value=9.10

* * *

- Assay protocol: Binding affinity to HSP70 (unknown origin) by surface plasmon resonance method
- Design: species or system Homo sapiens
pKd: −log10 of the molar value.
Observation type: pKd

molecule="NC(=O)C(CNC(=O)c1ccc2[nH]nc(Br)c2c1)NC(=O)c1cccc(NC(=O)CCC(=O)c2ccc(-c3ccccc3)cc2)c1 (stereo unspecified)" experimental_value=9.19
